The binders listed here are annotated with their koff.
Biological target: T1, human DLL4 extracellular domain protein, His-tagged (R&D System Cat: 1506-D4/CF) (human, UniProt Q9NR61 27-522)
T1 construct: range 27-522; Bought protein; also called hDLL4-His; human DLL4-His; not shown: C-terminal histidine tag
T1 sequence (Q9NR61 27-522 limits assumed): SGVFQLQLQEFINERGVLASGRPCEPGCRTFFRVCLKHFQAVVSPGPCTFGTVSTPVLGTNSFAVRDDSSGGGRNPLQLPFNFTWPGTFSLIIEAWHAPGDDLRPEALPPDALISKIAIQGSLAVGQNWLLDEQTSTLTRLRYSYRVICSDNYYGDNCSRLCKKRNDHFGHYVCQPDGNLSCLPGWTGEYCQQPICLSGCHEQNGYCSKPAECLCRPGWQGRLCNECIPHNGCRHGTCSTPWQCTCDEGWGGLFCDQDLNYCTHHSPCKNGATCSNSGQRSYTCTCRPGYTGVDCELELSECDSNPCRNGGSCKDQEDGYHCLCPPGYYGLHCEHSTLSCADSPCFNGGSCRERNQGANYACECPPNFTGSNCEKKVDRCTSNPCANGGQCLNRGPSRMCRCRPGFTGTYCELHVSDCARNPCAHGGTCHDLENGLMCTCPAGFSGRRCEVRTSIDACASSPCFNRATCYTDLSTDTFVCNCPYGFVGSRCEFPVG
Experiment: SPR (Biacore T200), hDLL4 immobilised on a CM5 chip, antibody as analyte; the table says 'Bivalent binding'
Provide only the numeric value, understood in s⁻¹.

Worked cases, koff given:
MLCK-1 (antibody, V domains shown, Human monoclonal antibody from a phage scFv library; Only the variable regions are tied to the clone; In flow cytometry it was detected with an anti-human IgG Fc-specific antibody, so it carries a human Fc; also called anti-DLL4 antibody) VH: EVQLLESGGGLVQPGGSLRLSCAASGFTFSDYAMSWVRQAPGKGLEWVSWIYSDDGNKYYADSVKGRFTISRDNSKNTLYLQMNSLRAEDTAVYYCARADPPFDYWGQGTLVTVSS VL: QSVLTQPPSASGTPGQRVTISCTGSSSNIGSNNVSWYQQLPGTAPKLLIYSDNNRPSGVPDRFSGSKSGTSASLAISGLRSEDEADYYCATWDSSLNGYVFGGGTKLTVL	0.0169
MLCK-2 (antibody, V domains shown, Human monoclonal antibody from a phage scFv library; Only the variable regions are tied to the clone; In flow cytometry it was detected with an anti-human IgG Fc-specific antibody, so it carries a human Fc; also called MLCK-2 mAb; anti-DLL4 antibody) VH: EVQLLESGGGLVQPGGSLRLSCAASGFTFSDYAMSWVRQAPGKGLEWVSWIYSGSGNKYYADSVKGRFTISRDNSKNTLYLQMNSLRAEDTAVYYCARADWPFDYWGQGTLVTVSS VL: QSVLTQPPSASGTPGQRVTISCTGSSSNIGSNDVTWYQQLPGTAPKLLIYADSKRPSGVPDRFSGSKSGTSASLAISGLRSEDEADYYCGTWDYSLSAYVFGGGTKLTVL	0.000232
MLCK-3 (antibody, V domains shown, Human monoclonal antibody from a phage scFv library; Only the variable regions are tied to the clone; In flow cytometry it was detected with an anti-human IgG Fc-specific antibody, so it carries a human Fc; also called anti-DLL4 antibody) VH: EVQLLESGGGLVQPGGSLRLSCAASGFTFSDYAMSWVRQAPGKGLEWVSWIYYDSGSKYYADSVKGRFTISRDNSKNTLYLQMNSLRAEDTAVYYCARADLPFDYWGQGTLVTVSS VL: QSVLTQPPSASGTPGQRVTISCSGSSSNIGNNAVTWYQQLPGTAPKLLIYSDNHRPSGVPDRFSGSKSGTSASLAISGLRSEDEADYYCGTWDASLSGYVFGGGTKLTVL	0.00359

Consider the additional binder presented here.
In one line, give reported koff of the entry MLCK-4 (antibody, V domains shown, Human monoclonal antibody from a phage scFv library; Only the variable regions are tied to the clone; In flow cytometry it was detected with an anti-human IgG Fc-specific antibody, so it carries a human Fc; also called anti-DLL4 antibody) VH: EVQLLESGGGLVQPGGSLRLSCAASGFTFSNYAMSWVRQAPGKGLEWVSWIYHGGGDTYYADSVKGRFTISRDNSKNTLYLQMNSLRAEDTAVYYCARGPNYTFGKPFDYWGQGTLVTVSS VL: QSVLTQPPSASGTPGQRVTISCRGSPSNIGNNTVYWYQQLPGTAPKLLIYSDSQRPSGVPDRFSGSKSGTSASLAISGLRSEDEADYYCGSWDYSLSAYVFGGGTKLTVL .
0.00474
